- assayed.target: Nuclear receptor coactivator 2 (Homo sapiens)
- assay.notes: SRC2 coactivator transcriptional activity inhibitors, confirmation, cell-based, luminescence, HEK293, triplicate (AID 652008)
- condition: HEK293 GAL4-SRC2 luciferase reporter, at 8.9 µM
Active and inactive are the calls of the source.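 Rule for the calls: active = mean inhibition above 46.5%, the solvent-only control mean plus 3 SD; inactive = the rest.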
Outcome codes: TRUE (active), FALSE (inactive)

| compound | assigned.category |
| --- | --- |
| COc1ccc2nc(-c3ccc(N)cc3)[nH]c2c1 | TRUE |
| Cc1nc2ccccc2c2c1CC(C(C)(Cl)Br)O2 (configuration not stated) | FALSE |
| Cn1nnnc1Sc1ncnc2scc(-c3ccc(C#N)cc3)c12 | FALSE |
| Nc1ncccc1C(=O)OCC(=O)N1CCN(S(=O)(=O)c2ccc(Cl)cc2)CC1 | FALSE |
| Cc1ccc(NC(=O)O/N=C/c2c(C)nn(C(C)(C)C)c2C)cc1Cl | TRUE |
| COC(=O)c1ccc(CN2CCc3ccc(NC(=O)c4ccncc4)cc3C2)cc1 | FALSE |
| CC1CC(C)C(=O)C(C(CC2CC(=O)NC(=O)C2)OC(=O)CC(=O)c2ccccc2)C1 (configuration not stated) | TRUE |
| COc1ccc(Cc2nnc(N/N=C/c3ccc(O)cc3)[nH]c2=O)cc1OC | TRUE |
| Cn1cnnc1SCC(=O)NC1CCCC1 | FALSE |
| O=C(O)CCSc1nnc(-c2ccc3c(c2)OCO3)o1 | TRUE |
| O=c1cc(CCl)nc(Cc2c(Cl)cccc2Cl)[nH]1 | TRUE |
| COc1ccc(-c2nnn(CC(=O)N(Cc3cccs3)C(C)C(=O)NCCC(C)C)n2)cc1OC (configuration not stated) | FALSE |
| c1csc(CNc2ccc3c(c2)OCCO3)c1 | TRUE |
| CCN(CC)S(=O)(=O)c1ccc(NC2c3ccccc3C(=O)N2Cc2ccco2)cc1 (configuration not stated) | FALSE |
| C=CCNC(=S)NCc1ccccc1 | FALSE |
| O=c1oc2ccc(C#CC3(O)CCCCC3)cc2cc1-n1cc(-c2ccccn2)nn1 | FALSE |
| Cc1nnc(SCC(=O)N2CCC(c3noc4ccc(F)cc34)CC2)s1 | FALSE |
